Values compiled from ChEMBL document CHEMBL1148008.

Tested on: U-937/GTB
Experiment: Cytotoxicity against U937 GTB cells
Assay type: functional, cell-based
Conditions: Homo sapiens
The following molecules are shown together with reported IC50 values.
readout.kind: IC50 (µM)

[[record]]
molecule = "C/N=c1\\ncn(C)c2ncn(C/C=C(\\C)CC/C=C(\\C)CC/C=C(\\C)CCC=C(C)C)c12"
subject_of_test = "U-937/GTB"
relation_qualifier = ">"
quantitative_readout = 80

[[record]]
molecule = "CO/N=c1\\[nH]cnc2c1[n+](C/C=C(\\C)CC/C=C(/C)CCC=C(C)C)cn2C"
subject_of_test = "U-937/GTB"
relation_qualifier = "="
quantitative_readout = 1.4

[[record]]
molecule = "CC(C)=CCC/C(C)=C/CC/C(C)=C/CC/C(C)=C/C[n+]1cn(C)c2ncnc(N)c21"
subject_of_test = "U-937/GTB"
relation_qualifier = "="
quantitative_readout = 3.17

[[record]]
molecule = "C=CCn1c[n+](C/C=C(\\C)CC/C=C(\\C)CC/C=C(\\C)CCC=C(C)C)c2/c(=N/OC)[nH]cnc21"
subject_of_test = "U-937/GTB"
relation_qualifier = "="
quantitative_readout = 1.39

[[record]]
molecule = "CO/N=c1\\[nH]cnc2c1[n+](C/C=C(\\C)CCC=C(C)C)cn2C"
subject_of_test = "U-937/GTB"
relation_qualifier = "="
quantitative_readout = 17.5

[[record]]
molecule = "CO/N=c1\\[nH]cnc2c1[n+](C/C=C(\\C)CC/C=C(\\C)CCC=C(C)C)cn2C"
subject_of_test = "U-937/GTB"
relation_qualifier = "="
quantitative_readout = 1.32

[[record]]
molecule = "CC(=O)O[C@H]1C(=O)[C@@]2(C)[C@H]([C@H](OC(=O)c3ccccc3)[C@]3(O)C[C@H](OC(=O)[C@H](O)[C@@H](NC(=O)c4ccccc4)c4ccccc4)C(C)=C1C3(C)C)[C@]1(OC(C)=O)CO[C@@H]1C[C@@H]2O [PACLITAXEL]"
subject_of_test = "U-937/GTB"
relation_qualifier = "="
quantitative_readout = 0.0059

[[record]]
molecule = "CC(C)=CCC/C(C)=C/CC/C(C)=C/CC/C(C)=C/C[n+]1cn(C)c2nc[nH]/c(=N\\OC(C)(C)C)c21"
subject_of_test = "U-937/GTB"
relation_qualifier = "="
quantitative_readout = 4.87

[[record]]
molecule = "COc1cccc2c1C(=O)c1c(O)c3c(c(O)c1C2=O)C[C@@](O)(C(=O)CO)C[C@@H]3O[C@H]1C[C@H](N)[C@H](O)[C@H](C)O1 [DOXORUBICIN]"
subject_of_test = "U-937/GTB"
relation_qualifier = "="
quantitative_readout = 0.11

[[record]]
molecule = "CC(C)=CCC/C(C)=C/CC/C(C)=C/CC/C(C)=C/Cn1cnc2ncnc(N)c21"
subject_of_test = "U-937/GTB"
relation_qualifier = "="
quantitative_readout = 3.6

[[record]]
molecule = "CO/N=c1\\[nH]cnc2c1[n+](C/C=C(\\C)CC/C=C(\\C)CC/C=C(\\C)CCC=C(C)C)cn2Cc1ccccc1"
subject_of_test = "U-937/GTB"
relation_qualifier = "="
quantitative_readout = 1.07

[[record]]
molecule = "CC(C)=CCC/C(C)=C/CC/C(C)=C/CC/C(C)=C/C[n+]1cnc2c(ncn2C)c1N.[Br-]"
subject_of_test = "U-937/GTB"
relation_qualifier = "="
quantitative_readout = 39.4

[[record]]
molecule = "CC(C)=CCC/C(C)=C/CC/C(C)=C/CC/C(C)=C/Cn1cnc2c1C(=N)NCN2C"
subject_of_test = "U-937/GTB"
relation_qualifier = ">"
quantitative_readout = 80

[[record]]
molecule = "CC(C)=CCC/C(C)=C/CC/C(C)=C/CC/C(C)=C/Cn1cnc2nc[nH]/c(=N\\OCc3ccccc3)c21"
subject_of_test = "U-937/GTB"
relation_qualifier = "="
quantitative_readout = 11.2

[[record]]
molecule = "CO/N=c1\\[nH]cnc2c1[n+](C/C=C(\\C)CC/C=C(\\C)CC/C=C(\\C)CCC=C(C)C)cn2C"
subject_of_test = "U-937/GTB"
relation_qualifier = "="
quantitative_readout = 1.42

